The values you see were collected from PubChem BioAssay (NCI).

# Tested on: NCI-H23 lung
# ASSAY_TEXT: NCI-60 one-dose screen, 48 h (100 = growth as untreated, 0 = no growth, -100 = all killed)
# TEST_SETTINGS: 10 µM unless noted
# Procedure: Growth inhibition of the NCI-H23 human Non-Small Cell Lung tumor cell line is measured as a screen for anti-cancer activity. Cells are grown in 96 well plates and exposed to the test compound for 48 hours. Compounds are tested at a single concentration, which is 10^-5 M for most compounds. The reported endpoint is percent growth (GI% or GIPRCNT), where numbers from 0 - 100% represent growth inhibition, and numbers from -100% - 0 represent cell death. […]
Compounds without any hit were thinned out: in the full panel of roughly 83,000, 20% have a hit.
Could you please mark Condition met for values of growth below 50% and Condition not met for values at or above it?

MOLECULE	GROUP
CC(C)(C)[C@H](OCc1cn([C@H]2C[C@@H](O)[C@@H](CO)O2)c(=O)[nH]c1=O)c1ccc(C#Cc2ccccc2)cc1[N+](=O)[O-]	Condition not met
FC(F)(F)c1cccc(-c2nnn(Cc3cc(-c4cccc(Cl)c4)no3)n2)c1	Condition not met
Oc1cccc2c1NCCC2	Condition met
C=CCNc1nc(O)c(/C=C2\C=Nc3ncccc32)s1	Condition met

Alright, here's another molecule for you.
Q: Problem: For the molecule CCN1C(=O)N(CC)C2C1NN=c1s/c(=C\c3ccc([N+](=O)[O-])cc3)c(=O)n12 (stereo not given) , is growth under 50%?
Ans: Condition met
